Parameter 'readout' = MIC; parameter 'system' = E. coli MB4827.
measured-endpoint: MIC

# compound, measured-endpoint, reading
rows = [
    ("COc1cc(Cc2cnc(N)nc2N)cc(OC)c1OCCCn1cc(CNC(=O)Cc2cc(=O)oc3cc(N(C)C)ccc23)nn1 [13a]", "MIC", "> 64 µg/mL"),
    ("COc1cc(Cc2cnc(N)nc2N)cc(OC)c1OCCCCn1cc(CNc2ccc([N+](=O)[O-])c3nonc23)nn1 [compound 12b]", "MIC", "> 64 µg/mL"),
    ("COc1cc(Cc2cnc(N)nc2N)cc(OC)c1OCCCCCn1cc(CNS(=O)(=O)c2cccc3c(N(C)C)cccc23)nn1 [compound 14c]", "MIC", "> 64 µg/mL"),
    ("COc1cc(Cc2cnc(N)nc2N)cc(OC)c1OC [TMP, trimethoprim, reference compound]", "MIC", "1 µg/mL"),
    ("COc1cc(Cc2cnc(N)nc2N)cc(OC)c1OCCCCCn1cc(CNC(=O)Cc2cc(=O)oc3cc(N(C)C)ccc23)nn1 [compound 13c]", "MIC", "> 64 µg/mL"),
]
